- Measured On: Steroidogenic factor 1 (Homo sapiens) (UniProt Q13285)
- Sequence (Q13285 whole entry, looked up): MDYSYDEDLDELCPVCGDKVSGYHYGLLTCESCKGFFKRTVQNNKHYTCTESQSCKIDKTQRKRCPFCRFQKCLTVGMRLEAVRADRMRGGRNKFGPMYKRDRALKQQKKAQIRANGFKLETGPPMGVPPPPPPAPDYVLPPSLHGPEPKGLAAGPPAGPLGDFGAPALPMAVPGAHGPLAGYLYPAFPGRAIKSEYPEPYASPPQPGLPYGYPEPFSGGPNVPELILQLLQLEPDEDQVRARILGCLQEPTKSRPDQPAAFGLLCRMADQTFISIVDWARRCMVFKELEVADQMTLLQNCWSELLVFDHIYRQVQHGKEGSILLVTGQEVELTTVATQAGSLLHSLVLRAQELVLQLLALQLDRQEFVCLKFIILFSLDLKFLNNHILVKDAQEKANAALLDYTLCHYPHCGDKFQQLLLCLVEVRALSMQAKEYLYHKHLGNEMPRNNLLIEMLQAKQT
- Assay Summary: SF1 (NR5A1) inverse agonists, counter-screen for LRH-1 inverse agonist project, cell-based, luminescence, high throughput (AID 651614);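 also: cells cotransfected with StAR promoter reporter and SF1 expression vector; 0% = vehicle on cells with receptor and 100% = vehicle on cells lacking receptor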
- Test Context: cell-based SF1 luciferase reporter, at 3.6 µM, stronger effect = higher value
Give inhibition for every item shown.
State just the number; it will be interpreted in %.

[Q] Tell me measured inhibition for `Cc1ccnc2c1ccc1cccnc12` please.
[A] 67.4

[Q] Tell me measured inhibition for Cc1ccc(NC(=O)COC(=O)C(NS(=O)(=O)c2ccc(Cl)cc2)C(C)O)cc1C (stereo unspecified) please.
[A] 43.2

[Q] Tell me measured inhibition for `Cc1ccccc1C(=O)N1CCN(c2ccc(NC(=O)c3ccc([N+](=O)[O-])o3)cc2)CC1` please.
[A] 69.1

[Q] Tell me measured inhibition for `CC(C)(C)C(=O)Nc1cc2nn(-c3ccccc3)nc2cc1Cl` please.
[A] 43.6

[Q] Tell me measured inhibition for COc1ccc(CCNC(=O)CSC2=Nc3ccccc3C3=NC(C(C)C)C(=O)N23)cc1OC (stereo unspecified) please.
[A] 53.1

[Q] Tell me measured inhibition for `CC[C@@]1(O)C(=O)OCc2c1cc1n(c2=O)Cc2cc3c(CN(C)C)c(O)ccc3nc2-1` please.
[A] 85.7

[Q] Tell me measured inhibition for `CN(C)CCN1C(=O)c2cccc3cc([N+](=O)[O-])cc(c23)C1=O` please.
[A] 84.4

[Q] Tell me measured inhibition for `O=[N+]([O-])c1cccc(-c2ccc3nnc(SCc4cccnc4)n3n2)c1` please.
[A] 62

[Q] Tell me measured inhibition for `CC1(C)CC(N2CCCCC2)=CC(=[N+]2CCCCC2)C1` please.
[A] 69.1

[Q] Tell me measured inhibition for CC(NNC(=S)N1CCN(c2ccccn2)CC1)c1nccc2ccccc12 (stereo unspecified) please.
[A] 89.3

[Q] Tell me measured inhibition for `CO/N=C\C(=N\Nc1ccc(OC)cc1)C(=O)c1ccccc1` please.
[A] 36.8

[Q] Tell me measured inhibition for `CCn1c(C)cc(C(=O)COC(=O)c2ccccc2[N+](=O)[O-])c1C` please.
[A] 83.6

[Q] Tell me measured inhibition for Cc1ccc(NC(=O)CN2C(=O)NC(C)(CC(C)C)C2=O)c(Br)c1 (stereo unspecified) please.
[A] 61.6

[Q] Tell me measured inhibition for `O=C(O)c1ccc(N/N=C/c2ccc3nccnc3c2)cc1` please.
[A] 61

[Q] Tell me measured inhibition for `C#CCN(C[C@@H]1[C@@H](OC(=O)NCC2CCCCC2)[C@@H](OC(=O)NCC2CCCCC2)Cn2c(=O)ccc(=O)n21)S(=O)(=O)c1ccc(C)cc1` please.
[A] 74.5

[Q] Tell me measured inhibition for `CN(C)S(=O)(=O)c1ccc(C(=O)NCc2ccc3[nH]c4c(c3c2)CCCC4)cc1` please.
[A] 54.4

[Q] Tell me measured inhibition for `NC(=O)c1cc([N+](=O)[O-])ccc1NCc1ccc(O)cc1` please.
[A] 67.8

[Q] Tell me measured inhibition for `COc1ccc(C2=Nn3c([n+](C)c4ccccc43)SC2)cc1` please.
[A] 86.5

[Q] Tell me measured inhibition for `CCN(Cc1ccc(OC)c(F)c1)C(=O)CCl` please.
[A] 73.3

[Q] Tell me measured inhibition for `CCOC(=O)c1ccc(NC(=O)c2ccc(C)c(S(=O)(=O)N3CCOCC3)c2)cc1` please.
[A] 66.5

[Q] Tell me measured inhibition for `CC(=NNC(=S)Nc1cccc(C)c1)c1ccccn1` please.
[A] 92.4
